targetOrSystem: human RET on cells (MCF7/SRE-Luc; HEK293/hGFRα3/hRET/SRE-Luc; HEK293/hGFRα1/hRET/SRE-Luc) (human), P07949
runDescription: cell-based or functional assay
attributeMeasured: MCF7/SRE-Luc % Activation (%)
Just the number please, in %, no unit attached.

binder	MCF7/SRE-Luc % Activation / %
H4H8085P (antibody, human IgG4, V domains shown) VH: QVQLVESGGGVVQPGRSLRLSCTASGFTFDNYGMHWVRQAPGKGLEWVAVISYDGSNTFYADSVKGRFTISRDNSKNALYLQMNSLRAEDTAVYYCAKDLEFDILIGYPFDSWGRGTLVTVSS VL: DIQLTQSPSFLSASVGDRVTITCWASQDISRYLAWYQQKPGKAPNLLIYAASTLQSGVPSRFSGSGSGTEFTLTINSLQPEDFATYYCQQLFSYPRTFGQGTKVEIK	47
H4H8066P (antibody, human IgG4, V domains shown) VH: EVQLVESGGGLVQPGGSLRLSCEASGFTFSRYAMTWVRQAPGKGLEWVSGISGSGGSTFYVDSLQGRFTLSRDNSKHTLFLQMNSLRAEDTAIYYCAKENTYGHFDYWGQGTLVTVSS VL: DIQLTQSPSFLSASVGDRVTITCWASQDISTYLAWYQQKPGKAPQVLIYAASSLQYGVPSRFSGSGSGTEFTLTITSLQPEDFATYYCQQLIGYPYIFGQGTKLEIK	0
H4H8045P (antibody, human IgG4, V domains shown) VH: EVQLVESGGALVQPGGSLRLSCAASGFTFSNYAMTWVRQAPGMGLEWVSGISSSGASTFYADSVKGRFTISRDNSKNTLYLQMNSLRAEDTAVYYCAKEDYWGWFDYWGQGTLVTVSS VL: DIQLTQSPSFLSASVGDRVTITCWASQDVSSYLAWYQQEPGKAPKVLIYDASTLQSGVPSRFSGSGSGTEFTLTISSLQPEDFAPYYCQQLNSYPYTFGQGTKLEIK	0

Please turn your attention to the following entry.
MCF7/SRE-Luc % Activation for H4H8062P (antibody, human IgG4, V domains shown) VH: EVQLVESGGGLVQPGGSLRLSCSVSGFIFKNYAMRWVRQAPGKGLEWVSGISGSGGITYYADSVRGRVTISRDNSKNTLDLQMTNLRAEDTAVYYCAKAEYSSSGAYFDYWGQGTLVTVSS VL: DIQMTQSPSSLSASVGDRVTITCRASQSIHNYLNWYLQRPGKAPKLLVYAASSLQSGVPSRFSGRGSGTDFTLTISSLQPEDFATYYCQQSYSAPYSFGQGTKLEIK ? 0

Reference source for all entries: patent US20220185900A1
